Test system: NCI-H838
protocol-description: relative viability (nuclei count vs DMSO), 5 days (fraction); higher = more cells survive
condition: first compound 0.1265 µM
Documented relative viability across a set of compounds
observed-property: relative viability

compound="Clc1ccc(Nc2nnc(Cc3ccncc3)c3ccccc23)cc1 [Vatalanib] + COc1cccc2cc(-c3nc([C@H]4CC[C@H](C(=O)O)CC4)n4ncnc(N)c34)[nH]c12 [OSI-027] (partner 0.5 µM)" readout_number=0.384
compound="Clc1ccc(Nc2nnc(Cc3ccncc3)c3ccccc23)cc1 [Vatalanib] + NC(=O)Nc1cc(-c2cccc(F)c2)sc1C(=O)N[C@H]1CCCNC1 [AZD7762] (partner 0.2 µM)" readout_number=0.882
compound="COc1cc(N2CCC(C(N)=O)CC2)ccc1Nc1nc(N)c(Cl)c(Nc2ccccc2S(=O)(=O)C(C)C)n1 [HG-5-88-01] + Nc1ncn([C@H]2C[C@H](O)[C@@H](CO)O2)c(=O)n1 [Decitabine] (partner 2 µM)" readout_number=0.467
compound="COc1cc(N2CCC(C(N)=O)CC2)ccc1Nc1nc(N)c(Cl)c(Nc2ccccc2S(=O)(=O)C(C)C)n1 [HG-5-88-01] + CS(=O)(=O)N1CCN(Cc2cc3nc(-c4cccc5[nH]ncc45)nc(N4CCOCC4)c3s2)CC1 [Pictilisib] (partner 1 µM)" readout_number=0.503
